# TESTED_TARGET: human renin (Homo sapiens)
# Construct: A human plasma pool is used as the source of both the substrate (angiotensinogen) and the enzyme (renin)
# Sequence (P00797 67-406): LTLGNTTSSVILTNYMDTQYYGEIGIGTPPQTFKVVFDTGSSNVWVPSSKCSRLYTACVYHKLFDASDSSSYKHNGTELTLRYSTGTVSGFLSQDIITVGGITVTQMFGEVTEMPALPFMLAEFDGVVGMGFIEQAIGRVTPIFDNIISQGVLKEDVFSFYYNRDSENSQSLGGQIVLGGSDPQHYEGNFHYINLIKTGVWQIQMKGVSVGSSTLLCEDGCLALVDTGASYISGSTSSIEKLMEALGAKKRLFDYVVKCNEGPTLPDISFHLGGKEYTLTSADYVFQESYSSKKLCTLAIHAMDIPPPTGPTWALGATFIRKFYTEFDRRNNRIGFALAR
# EXPERIMENT: Plasma renin assay (inhibition of human renin, angiotensin I by RIA)
# ASSAY_SETUP: human plasma pool, pH 6.0, 2 h incubation at 37°
Please respond with reported pIC50 for every item in the list.
One number for each entry, as −log10 of the molar value.

SMILES_ENTRY: Cc1nc(C[C@H](CC(=O)N(CC(=O)N(C)C)CC2CCCCC2)C(=O)N[C@@H](CC2CCCCC2)[C@@H](O)[C@@H](O)CC(C)C)cs1
TESTED_TARGET: human renin (Homo sapiens)
pIC50: 7.73

SMILES_ENTRY: CC(C)C[C@H](O)[C@H](O)[C@H](CC1CCCCC1)NC(=O)[C@@H](CC(=O)N(CC(=O)N(C)C)C[C@@H](C)c1ccccc1)CC1CC1
TESTED_TARGET: human renin (Homo sapiens)
pIC50: 7.43

With those in mind, consider the next compound.
stdin: Name the recorded pIC50 for `CC(C)C[C@H](O)[C@H](O)[C@H](CC1CCCCC1)NC(=O)[C@@H](CC(=O)N(CC(=O)N(C)C)C[C@@H](C)c1ccccc1)Cc1csc(N)n1` .
stdout: 8.46
